- method: protein stability index of a GFP-peptide fusion (yeast GPS) (PSI 1-4); higher = more stable; sorted into four equal gates, so the index is relative within each strain
- experimental.conditions: ubr1∆
Attribute: protein stability index
// response body must contain only the number

{"query.sequence": "KAVKLRKSYKNQIADLS [ROX3]", "protein stability index": 2.95}
{"query.sequence": "STGLKSASDALKGRVVE [RPS1A]", "protein stability index": 3.37}
{"query.sequence": "KDGGDKPPSSAFNFSFN [YAR002W/NUP60]", "protein stability index": 3.29}
{"query.sequence": "VVKASELDQFWQEYSSV [SRP14]", "protein stability index": 3.27}
{"query.sequence": "DSSVEDSTDNENSGKEM [LIN1]", "protein stability index": 2.99}

Item DEGHVLKLENLHVVSKS [SIN4] : provide protein stability index
3.02

Item IIELENINAKMETRINI [YIL149C/MLP2] : provide protein stability index
2.62

Item QQQQQQQQQQQQQQQQH [GAL11] : provide protein stability index
2.88

* * *

- method: protein stability index of a GFP-peptide fusion (yeast GPS) (PSI 1-4); higher = more stable; sorted into four equal gates, so the index is relative within each strain
- experimental.conditions: ubr1∆
assay.metric: protein stability index
// response body must contain only the number

Example sequences with recorded protein stability index:
{"query.sequence": "LDKQIEELVEAIVLPMK [RPT5]", "protein stability index": 3.43}
{"query.sequence": "MSLSNKTVKELRQLLKE [RRI1]", "protein stability index": 1.85}
{"query.sequence": "DSADVPAFSNSNGFNNV [YMR153W/NUP53]", "protein stability index": 3.23}
{"query.sequence": "VIPSYSKWFNLEKIHSI [SWI3]", "protein stability index": 1.89}
{"query.sequence": "RYNRAVPDSKIRIYDLG [RPL10]", "protein stability index": 2.55}

Item LPAPPVCIRPSVMMQDS [RPO31] : provide protein stability index
2.04

Item NNTEKNDVTNKNINIGK [SIR4] : provide protein stability index
2.37

Item PGNRNADNVDKILEQFE [FAS2] : provide protein stability index
2.5

Item APTLSQTYINQELGFCE [SSN2] : provide protein stability index
2.92

Item LIPCKYLNRHADFFVRE [RPN7] : provide protein stability index
2.81

Item AFFHLFASLRVLPDADV [YJL039C/NUP192] : provide protein stability index
1.97

Item DLTRVYKAISAQADKQD [FAS2] : provide protein stability index
1.75

Item RRADVKTATVKINKKLN [RPL38] : provide protein stability index
1.62

Item KGRSYAYFMVGAMGLLS [RIP1] : provide protein stability index
2.98

* * *

- method: protein stability index of a GFP-peptide fusion (yeast GPS) (PSI 1-4); higher = more stable; sorted into four equal gates, so the index is relative within each strain
- experimental.conditions: san1∆
Attribute: protein stability index
// response body must contain only the number

{"query.sequence": "LYGLNLTLRKAKAPSGL [FAS1]", "protein stability index": 3.53}
{"query.sequence": "IFCIDLEVFHHFFKWIE [SRB8]", "protein stability index": 1.38}
{"query.sequence": "GEIDFIKNIGKSLKNNF [YML103C/NUP188]", "protein stability index": 2.17}
{"query.sequence": "YQTKKFYDYIKERSIVV [REC8]", "protein stability index": 2.14}
{"query.sequence": "EKTYTKAPKIQRLVTPQ [RPS6A]", "protein stability index": 2.11}
{"query.sequence": "KDAISFIKEIHKSIELI [YCS4]", "protein stability index": 3.17}

Pending sequence:
Item QQRIVSAYEASMVYSNV [RRP4] : provide protein stability index
2.62

* * *

Attribute: protein stability index
- method: protein stability index of a GFP-peptide fusion (yeast GPS) (PSI 1-4); higher = more stable; sorted into four equal gates, so the index is relative within each strain
- experimental.conditions: san1∆
// response body must contain only the number

Item FTKKPVTPNDKIPEREE [SIR4] : provide protein stability index
3.27

Item AFVPKKRKTNIIMFVGL [SRP54] : provide protein stability index
1.86

Item ILTIIEEYKKSLYAYCH [GRR1] : provide protein stability index
2.27

* * *

Attribute: protein stability index
- method: protein stability index of a GFP-peptide fusion (yeast GPS) (PSI 1-4); higher = more stable; sorted into four equal gates, so the index is relative within each strain
- experimental.conditions: san1∆
// response body must contain only the number

Example sequences with recorded protein stability index:
{"query.sequence": "NYNRIAKICALLFFNFS [NUT1]", "value.observed": 1.37}
{"query.sequence": "FNEKFPSLIQEEEEDTT [NUT1]", "value.observed": 3.06}
{"query.sequence": "PKSASNTSSKRQKKKPT [IRR1]", "value.observed": 2.65}
{"query.sequence": "NANIFSSVKCFGPIKVE [FAS1]", "value.observed": 2.17}

Pending sequence:
Item LQPFYSQPTAAGGPDMT [DSN1] : provide protein stability index
1.88

* * *

- method: protein stability index of a GFP-peptide fusion (yeast GPS) (PSI 1-4); higher = more stable; sorted into four equal gates, so the index is relative within each strain
- experimental.conditions: doa10∆
assay.metric: protein stability index
// response body must contain only the number

Example sequences with recorded protein stability index:
{"query.sequence": "NVFVILMDKCLPKVRIR [DIS3]", "protein stability index": 2.96}
{"query.sequence": "DNLGQTKIIMATNRPDT [RPT4]", "protein stability index": 2.76}
{"query.sequence": "LNVGNVLPLGSVPEGTI [RPL2A]", "protein stability index": 3.2}

Item ELTSFSSQPLEPLSDTE [DSN1] : provide protein stability index
3.34

Item KGRSYAYFMVGAMGLLS [RIP1] : provide protein stability index
2.39

Item SKLSLSRTDAVRCKDCG [RPC10] : provide protein stability index
1.77

Item SPMINSTSSGKVSYAVK [SNM1] : provide protein stability index
2.6

Item EVYDFTHAVGNNCEDFV [FAS1] : provide protein stability index
3.15

Item KRELLKRYRLKESQLPR [RPB5] : provide protein stability index
3.19

Item KTPEEVEVYAKIFWERL [ISW2] : provide protein stability index
1.74

Item MKEDGLSFVDIVLSKAA [SIR4] : provide protein stability index
1.88

Item GSGLLKLSEIILNINNS [SWI1] : provide protein stability index
2.69

* * *

- method: protein stability index of a GFP-peptide fusion (yeast GPS) (PSI 1-4); higher = more stable; sorted into four equal gates, so the index is relative within each strain
- experimental.conditions: pdr5∆
protein stability index of 3 or higher: T. Under 3: F.

{"query.sequence": "DNLGQTKIIMATNRPDT [RPT4]", "class.assignment": "F"}

Say whether YWKLWIDEPFNLDFDPR [FAS1] shows protein stability index of 3 or more.
F

Say whether EYYRIQKQLPQKTRVKL [ESC2] shows protein stability index of 3 or more.
F

Say whether PVKALNECIASTSNALK [SNF12] shows protein stability index of 3 or more.
F

Say whether ISSSTQCLRFLKETVIP [POP6] shows protein stability index of 3 or more.
F

Say whether YIYSQETKSWINESAEN [MED1] shows protein stability index of 3 or more.
F

* * *

- method: protein stability index of a GFP-peptide fusion (yeast GPS) (PSI 1-4); higher = more stable; sorted into four equal gates, so the index is relative within each strain
- experimental.conditions: pdr5∆
Attribute: protein stability index
// response body must contain only the number

{"query.sequence": "RALRRALTKFEASQVTE [RPL35A]", "value.observed": 2.56}

Item DTSLCINGEPSIHVNRV [RRI1] : provide protein stability index
3.04

Item TKMFEDRREKAERTMSK [SMC2] : provide protein stability index
3.37

Item EKQHENAVLELGTVQRE [SMC3] : provide protein stability index
3.54

Item TPSQIGVLLRDAHGVTQ [RPS13] : provide protein stability index
1.81

Item ICMESLFLEPSWSSSAA [PCI8] : provide protein stability index
2.86

Item NSSSMEEVMRIALMGQD [ESC2] : provide protein stability index
2.67

Item LEKISSSNKDLEDEKMK [SMC4] : provide protein stability index
3.15

* * *

- method: protein stability index of a GFP-peptide fusion (yeast GPS) (PSI 1-4); higher = more stable; sorted into four equal gates, so the index is relative within each strain
- experimental.conditions: pdr5∆
protein stability index of 3 or higher: T. Under 3: F.

The examples below pair each entry with its known result.
{"query.sequence": "IKKEEGKIDEAADILCE [RPN5]", "class.assignment": "F"}
{"query.sequence": "FSSLAISEINFLHESSF [CSI1]", "class.assignment": "F"}
{"query.sequence": "AKFFLNVSDEQLSNWQK [ITC1]", "class.assignment": "T"}
{"query.sequence": "QDIKKAKRVENFNSSAP [DSN1]", "class.assignment": "T"}
{"query.sequence": "SEYNFLEGSVSLPRFSK [DIS3]", "class.assignment": "T"}

Now for another entry.
Say whether VEKTEKPKKPKGRAYKR [RPS30A] shows protein stability index of 3 or more.
T

Taken from the supplement of paper PMC9732359.
